Where do these numbers come from? They come from the supplement of paper PMC9233669.

Answer each item with its documented self-aminoacylation.
system: biotinyl-Leu-oxazolone; assay: self-aminoacylation, catalytic enhancement (BLO) (fold over background); higher = more active; k-Seq, kA / k0A0; sequences stand for … in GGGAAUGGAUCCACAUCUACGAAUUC…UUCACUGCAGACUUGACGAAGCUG
Variants at the floor of the assay were thinned out.
One number for each entry.

[
  {
    "sequence_entry": "GAGUUUGCUAAUAGUCGUAAG [Fam3.1 aminoacylation ribozyme variant]",
    "subject_of_test": "biotinyl-Leu-oxazolone",
    "value_type": "self-aminoacylation",
    "result_value": 1.28
  },
  {
    "sequence_entry": "CUAGUUCAAACAAUCGGUCUC [Fam1A.1 aminoacylation ribozyme variant]",
    "subject_of_test": "biotinyl-Leu-oxazolone",
    "value_type": "self-aminoacylation",
    "result_value": 1.25
  },
  {
    "sequence_entry": "CCACACUUCAAGCUCUCGGUC [Fam1B.1 aminoacylation ribozyme variant]",
    "subject_of_test": "biotinyl-Leu-oxazolone",
    "value_type": "self-aminoacylation",
    "result_value": 1.25
  },
  {
    "sequence_entry": "AUUGCCCUGGUCAUCUAGUGA [Fam2.1 aminoacylation ribozyme variant]",
    "subject_of_test": "biotinyl-Leu-oxazolone",
    "value_type": "self-aminoacylation",
    "result_value": 8.79
  }
]

Report self-aminoacylation for every entry below.
1. CCACACUGCAUGCAAUCGGUC [Fam1B.1 aminoacylation ribozyme variant]
2. AAGAUUGCUAAUAGUCGCAAU [Fam3.1 aminoacylation ribozyme variant]
3. AAGUUUGUUAAUAGUCGCAAA [Fam3.1 aminoacylation ribozyme variant]
4. CUACUUCGAACACUCGGUCUG [Fam1A.1 aminoacylation ribozyme variant]

-- reply
1: 0.507; 2: 1.37; 3: 1.68; 4: 1.32
